molecular target: Recombinant STAT6 protein (STAT6 (W123-T658)) (Homo sapiens); construct: Recombinant STAT6 protein (STAT6 (W123-T658)); test: STAT6 Fluorescence Polarization (FP) Assay; format: binding; details: STAT6 (W123-T658) 250 nM, probe 5-FAM-Ap[…]-NH2 2 nM, 45-minute incubation; read-out: STAT6 (FP assay IC50 class)
Sequence (P42226 123-658): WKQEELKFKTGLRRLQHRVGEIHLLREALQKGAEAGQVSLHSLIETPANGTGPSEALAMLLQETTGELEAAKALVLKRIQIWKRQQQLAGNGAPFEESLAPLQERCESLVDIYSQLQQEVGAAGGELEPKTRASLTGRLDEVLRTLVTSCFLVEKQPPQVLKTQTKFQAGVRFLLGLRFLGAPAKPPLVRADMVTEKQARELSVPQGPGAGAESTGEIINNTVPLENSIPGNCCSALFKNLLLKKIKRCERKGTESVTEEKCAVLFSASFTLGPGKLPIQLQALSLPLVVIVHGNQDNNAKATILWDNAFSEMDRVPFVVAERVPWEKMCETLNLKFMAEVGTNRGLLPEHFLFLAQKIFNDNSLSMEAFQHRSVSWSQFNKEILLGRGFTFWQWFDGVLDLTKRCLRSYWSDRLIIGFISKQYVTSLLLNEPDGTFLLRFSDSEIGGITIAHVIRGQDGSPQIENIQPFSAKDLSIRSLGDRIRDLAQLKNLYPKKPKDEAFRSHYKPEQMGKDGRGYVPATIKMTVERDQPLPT
Reported IC50 values for the following molecules.

Molecule: O=C(N[C@H]1CCCC[C@H]2CC[C@@H](C(=O)N3C[C@@H](c4cc[nH]c(=O)c4)CC34CC4)N2C1=O)c1ccc2ccc(CP(=O)(O)O)cc2c1 [Compound 883]
IC50: 0.3 to 3 µM
//
Molecule: N#C[C@@H]1[C@@H](c2ccccc2)CN(C(=O)[C@@H]2CC[C@@H]3C[C@@H](N4CCC4)CC[C@H](NC(=O)c4cc5cc([C@@H](F)P(=O)(O)O)ccc5s4)C(=O)N32)C12CC2 (single isomer, unassigned) [Compound 935]
IC50: ≤ 0.3 µM
//
Molecule: COc1cncc([C@@H]2CN(C(=O)[C@@H]3CC[C@@H]4CCC[C@H](NC(=O)c5cc6cc([C@H](F)P(=O)(O)O)ccc6s5)C(=O)N43)C3(CC3)[C@H]2C#N)c1 (single isomer, unassigned) [Compound 843]
IC50: 0.3 to 3 µM
//
Molecule: O=C(N[C@H]1CC[C@H]2CC[C@@H](C(=O)N3CC(n4ccnc4)C3)N2C1=O)c1cc2cc(C(F)(F)P(=O)(O)O)ccc2s1 [Compound 732]
IC50: 3 to 30 µM

API: the following record is the query input.
Look up IC50: COc1cc(F)c(C2CN(C(=O)[C@@H]3CC[C@@H]4CCC[C@H](NC(=O)c5cc6cc(CP(=O)(O)O)ccc6s5)C(=O)N43)C2)cn1 [Compound 556]
3 to 30 µM

----------
Reported pIC50 values for the following molecules.
target: Recombinant STAT3 protein (STAT3 (G127-I722)) (Homo sapiens, UniProt P40763); construct: Recombinant STAT3 protein (STAT3 (G127-I722)); assay: STAT3 Fluorescence Polarization (FP) Assay; type: binding; details: STAT3 (G127-I722) 25 nM, probe 5-FAM-GpYLPQTV-NH2 2 nM, 45-minute incubation; read-out: STAT3 (FP assay IC50 class)
Sequence (P40763 127-722): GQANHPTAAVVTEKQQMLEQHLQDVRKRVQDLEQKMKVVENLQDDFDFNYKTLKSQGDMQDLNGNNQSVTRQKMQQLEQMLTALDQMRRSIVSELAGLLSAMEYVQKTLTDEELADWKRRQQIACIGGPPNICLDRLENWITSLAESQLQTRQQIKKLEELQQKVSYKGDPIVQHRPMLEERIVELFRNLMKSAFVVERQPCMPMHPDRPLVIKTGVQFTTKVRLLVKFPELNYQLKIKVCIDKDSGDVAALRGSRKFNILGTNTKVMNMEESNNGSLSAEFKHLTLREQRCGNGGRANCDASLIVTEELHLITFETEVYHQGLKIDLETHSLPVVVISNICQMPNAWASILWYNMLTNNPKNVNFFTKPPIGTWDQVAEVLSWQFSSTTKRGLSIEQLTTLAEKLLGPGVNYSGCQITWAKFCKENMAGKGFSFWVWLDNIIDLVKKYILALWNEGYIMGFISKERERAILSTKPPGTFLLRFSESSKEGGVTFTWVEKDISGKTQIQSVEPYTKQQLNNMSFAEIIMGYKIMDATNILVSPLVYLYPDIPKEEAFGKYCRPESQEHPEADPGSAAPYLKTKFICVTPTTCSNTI
pIC50: −log10 of the molar value.

For orientation, consider the following solved cases.
Molecule: CN1CCN(C(=O)[C@@H]2CC[C@@H]3CCC[C@H](NC(=O)c4cc5cc(C(F)P(=O)(O)O)ccc5s4)C(=O)N32)c2ccccc21 (stereo partly shown) [Compound 763]
Measured Quantity: pIC50
Measured: 5.00 to 6.00

Molecule: CC1(c2ccccn2)CN(C(=O)[C@@H]2CC[C@@H]3CCC[C@H](NC(=O)c4cc5cc(C(F)(F)P(=O)(O)O)ccc5s4)C(=O)N32)C1 [Compound 547]
Measured Quantity: pIC50
Measured: > 7.00

Molecule: O=C(N[C@H]1CCC[C@H]2CC[C@@H](C(=O)N3CC(C4=CCCOC4)C3)N2C1=O)c1cc2cc(CP(=O)(O)O)ccc2s1 [Compound 672]
Measured Quantity: pIC50
Measured: 5.00 to 6.00

Molecule: CC[C@@H]1CC[C@H](NC(=O)c2cc3cc(C(F)P(=O)(O)O)ccc3s2)C(=O)N2[C@H](CC[C@H]2C(=O)N2C[C@@H](C#N)[C@H](c3ccccc3)C2)C1 (single isomer, unassigned) [Compound 235]
Measured Quantity: pIC50
Measured: 5.00 to 6.00

Molecule: O=C(N[C@H]1CCC[C@H]2CC[C@@H](C(=O)N3CC(c4nccnc4F)C3)N2C1=O)c1cc2cc(CP(=O)(O)O)ccc2s1 [Compound 538]
Measured Quantity: pIC50
Measured: 5.00 to 6.00

Look up pIC50: O=C(N[C@H]1CCCC[C@H]2CC[C@@H](C(=O)NCc3ccn[nH]3)N2C1=O)c1cc2cc(C(F)(F)P(=O)(O)O)ccc2s1 [Compound 726]
6.00 to 7.00

Look up pIC50: O=C(N[C@H]1CCC[C@H]2CC[C@@H](C(=O)N3CCOC(c4cccnc4)C3)N2C1=O)c1cc2cc(C(F)(F)P(=O)(O)O)ccc2s1 (stereo partly shown) [Compound 1124]
6.00 to 7.00

Look up pIC50: CC(NC(=O)[C@@H]1CC[C@@H]2CCCC[C@H](NC(=O)c3cc4cc(C(F)(F)P(=O)(O)O)ccc4s3)C(=O)N21)c1cc[nH]c(=O)c1 (stereo partly shown) [Compound 792]
6.00 to 7.00

Look up pIC50: N#C[C@H]1[C@H](c2ccccc2)CN(C(=O)[C@@H]2CC[C@@H]3CCC[C@H](NC(=O)c4cc5cc(CP(=O)(O)O)ccc5s4)C(=O)N32)C12CC2 [Compound 922]
5.00 to 6.00

Look up pIC50: O=C(N[C@H]1CCCC[C@H]2CC[C@@H](C(=O)NCc3cnc4[nH]cnc4c3)N2C1=O)c1cc2cc(C(F)P(=O)(O)O)ccc2s1 (stereo partly shown) [Compound 521]
> 7.00

Look up pIC50: CN(C)c1cc(C2CN(C(=O)[C@@H]3CC[C@@H]4CCC[C@H](NC(=O)c5cc6cc([C@@H](F)P(=O)(O)O)ccc6s5)C(=O)N43)C2)ccn1 (single isomer, unassigned) [Compound 701]
6.00 to 7.00
